Listed here are molecules together with their documented cell viability.
# Tested on: Caco-2
# TEST: cell viability relative to DMSO; higher = less toxic
# CONDITION_PARAMETERS: 72 h; 10 nM
Number only, in %; omit the unit.

Cc1nc(C)c(Cl)c(O)c1Cl :: 100
N#CCCCSC(=N)N :: 99.3
CC(C)(CC(=O)N1CCCC1)NCC(=O)N1C[C@@H](F)C[C@H]1C#N :: 93.5

Could you now consider this next molecule?
q: Missing value: cell viability, Caco-2, entry CC(=O)[C@@]1(O)CC[C@H]2[C@@H]3C[C@H](C)C4=CC(=O)C=C[C@]4(C)[C@@]3(F)[C@@H](O)C[C@@]21C . Fill in?
a: 96.2
